Data credit: paper PMC4618117

property-label: melting point

# compound, value-measured
measured = [
    ("CC12CCC3c4ccc(O)cc4CCC3C1CCC2=NNC(N)=S (stereo not drawn) [Compound 2, 3β-Hydroxyestron-17-thiosemicarbazone]", "254 to 256 °C"),
]

If you can, please state the reported melting point value of COC(=O)CCC(C)C1CCC2C3C(=O)CC4CC(=NNC(N)=S)CCC4(C)C3CCC12C (stereo not shown) .
285 to 286 °C

If you can, please state the reported melting point value of COC(=O)CCC(C)C1CCC2C3CCC4CC(=NNC(N)=S)CCC4(C)C3CC(=O)C12C (stereo not shown) .
125 to 127 °C

If you can, please state the reported melting point value of CC(=O)Oc1ccc2c(c1)CCC1C2CCC2(C)/C(=N/NC(N)=S)CCC12 (stereo not shown) .
248 to 249 °C

====

system: HEK293T (normal kidney epithelial cells); assay: MTT antiproliferative assay, HEK293T; assay type: cell-based; conditions: mean of three independent determinations, read-out: Cytotoxicity IC50 HEK293T
property-label: IC50

If you can, please state the reported IC50 value of CC12CCC3c4ccc(O)cc4CCC3C1CCC2=[N+]1NC(N)=[S+][Pt-2]1([Cl])[Cl] (stereo not shown) [Compound 3, [PtL ^2 Cl 2]] .
> 200 µM
